assay: physchem; conditions: pH 3.33, aqueous buffer
OUTCOME MEASURE: solubility

Reported solubility for Nc1nnc(-c2cccc(Cl)c2Cl)c(N)n1 : what is it?
1770 µg/mL

---

assay: Solubilities of weakly basic drugs in organic acid buffers; conditions: pH 3.2, aqueous buffer, Solubility (mg/mL) of Clonazepam in Fumaric Acid, pH of buffer 3.2
OUTCOME MEASURE: solubility (µg/mL)
Write the value in µg/mL as a bare number.

Entry O=C1CN=C(c2ccccc2Cl)c2cc([N+](=O)[O-])ccc2N1 : reported solubility = ?
9.6

---

assay: Solubilities of weakly basic drugs in organic acid buffers; details: pH 2.4, aqueous buffer, Solubility of Ondansetron Hydrochloride, fumaric acid 1 mg/mL; start pH 2.48, end pH 2.40
OUTCOME MEASURE: solubility (mg/mL)
State just the number; it will be interpreted in mg/mL.

Tell me the measured solubility of Cc1nccn1CC1CCc2c(c3ccccc3n2C)C1=O.Cl.O.O (racemic) [Ondansetron Hydrochloride] , please.
26.1
